- assay_system: human ether-à-go-go-related gene (hERG) potassium channel (human);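 further: peak tail current of the secondary pulse compared with the same well before compound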
- Sequence (Q12809 whole entry, looked up): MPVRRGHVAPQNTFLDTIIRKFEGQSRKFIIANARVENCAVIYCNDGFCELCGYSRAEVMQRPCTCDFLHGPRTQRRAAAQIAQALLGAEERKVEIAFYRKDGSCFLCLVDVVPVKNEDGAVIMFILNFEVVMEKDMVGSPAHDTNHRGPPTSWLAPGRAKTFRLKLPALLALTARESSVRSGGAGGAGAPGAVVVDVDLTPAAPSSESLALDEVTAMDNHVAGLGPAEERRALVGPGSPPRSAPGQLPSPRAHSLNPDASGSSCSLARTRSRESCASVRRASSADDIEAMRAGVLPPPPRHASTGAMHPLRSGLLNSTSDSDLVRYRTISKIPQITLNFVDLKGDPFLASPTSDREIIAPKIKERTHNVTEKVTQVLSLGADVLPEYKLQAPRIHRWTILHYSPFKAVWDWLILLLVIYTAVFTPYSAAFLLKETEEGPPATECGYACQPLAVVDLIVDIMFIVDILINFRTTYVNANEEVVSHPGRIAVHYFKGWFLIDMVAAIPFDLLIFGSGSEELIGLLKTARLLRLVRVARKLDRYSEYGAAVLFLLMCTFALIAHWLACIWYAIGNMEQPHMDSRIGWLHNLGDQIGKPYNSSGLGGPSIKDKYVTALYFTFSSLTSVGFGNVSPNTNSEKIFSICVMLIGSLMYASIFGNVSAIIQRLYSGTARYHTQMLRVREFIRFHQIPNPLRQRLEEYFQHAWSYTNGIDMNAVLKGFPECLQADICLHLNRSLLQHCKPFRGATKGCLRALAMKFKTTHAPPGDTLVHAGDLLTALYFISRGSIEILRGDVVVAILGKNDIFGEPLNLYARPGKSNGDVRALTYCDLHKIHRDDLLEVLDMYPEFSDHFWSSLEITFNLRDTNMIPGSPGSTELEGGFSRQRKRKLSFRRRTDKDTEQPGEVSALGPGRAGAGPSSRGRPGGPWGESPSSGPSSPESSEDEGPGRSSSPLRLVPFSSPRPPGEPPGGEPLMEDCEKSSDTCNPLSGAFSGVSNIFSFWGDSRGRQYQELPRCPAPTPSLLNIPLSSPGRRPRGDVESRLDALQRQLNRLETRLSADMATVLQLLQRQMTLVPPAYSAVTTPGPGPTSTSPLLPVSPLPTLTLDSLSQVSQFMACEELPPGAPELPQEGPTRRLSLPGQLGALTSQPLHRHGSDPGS
- assay_info: primary screen, population patch clamp on CHO cells stably expressing hERG; higher = less effect of the substance
The campaign covered roughly 310,000 compounds. About 14,000 (4.5%) showed an effect of 50% or more. The effect is printed as a negative number. The sample holds strong results, similar compounds and a random draw of the others, so the mix is not that of the screen.
# hERG current change (%, negative = inhibition) at 10uM listing for each entry below
endpoint_label: hERG current change (%, negative = inhibition) at 10uM (%)

{"compound": "O=C(O)C1CCCCC1C(=O)Nc1cc(Cl)ccc1Cl (centres unmarked)", "recorded_measurement": 10.3}
{"compound": "COc1ccc(-c2noc(CCC(=O)NCCCN3CCN(c4ccc(F)cc4)CC3)n2)cc1", "recorded_measurement": -67.4}
{"compound": "NC(=O)c1c(NC(=O)CSc2nc3c(c(C(F)(F)F)n2)CCc2ccccc2-3)sc2c1CCCC2", "recorded_measurement": -1.81}
{"compound": "O=C(NC1CCCCC1)c1cc([N+](=O)[O-])ccc1N1CCCCC1", "recorded_measurement": -17}
{"compound": "O=S(=O)(c1ccc(F)cc1)N1CCN(CCc2ccccc2)CC1", "recorded_measurement": -8.48}
{"compound": "COc1ccc(-c2noc(CCC(=O)NCCCN3CCC(Cc4ccccc4)CC3)n2)cc1", "recorded_measurement": -80.7}
{"compound": "CC1(C)CC(=O)c2cc(OCC(=O)NCCN3CCOCC3)ccc2O1", "recorded_measurement": 22.7}
{"compound": "O=C(NCCC1=CCCCC1)C1CCCN(S(=O)(=O)c2ccc(F)cc2)C1 (centres unmarked)", "recorded_measurement": 19.6}

* * *

# hERG current change (%, negative = inhibition) at 10uM listing for each entry below
- assay_system: human ether-à-go-go-related gene (hERG) potassium channel (human);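 further: peak tail current of the secondary pulse compared with the same well before compound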
- assay_info: primary screen, population patch clamp on CHO cells stably expressing hERG; higher = less effect of the substance
About 14,000 (4.5%) of roughly 310,000 compounds showed an effect of 50% or more. Effects have a minus sign here. Only a selection was taken, and strong results are over-represented in it overall.
endpoint_label: hERG current change (%, negative = inhibition) at 10uM (%)

{"compound": "O=C(NC(NC1CCS(=O)(=O)C1)C(Cl)(Cl)Cl)c1cccc(Cl)c1 (stereo not drawn)", "recorded_measurement": -7.37}
{"compound": "CCN(CC)C(=O)CSc1nc2cc3c(cc2c(=O)n1Cc1ccc(OC)cc1)OCO3", "recorded_measurement": 12.1}
{"compound": "O=C(CSc1nc2ccccc2c2nc3ccccc3n12)NCc1ccco1", "recorded_measurement": -8.55}
{"compound": "O=C(NC1CCS(=O)(=O)C1)/C(=C\\c1ccccc1)NC(=O)c1ccccc1 (stereo not drawn)", "recorded_measurement": -11}
{"compound": "O=C(N1CCC(n2nc(-c3ccccc3)oc2=O)CC1)C1(c2ccccc2)CC1", "recorded_measurement": -17.5}
{"compound": "CCN(CC)C(=O)CSc1nc2cc(OC)c(OC)cc2c(=O)n1Cc1ccc(Cl)cc1", "recorded_measurement": -77}
{"compound": "O=C(NC(NC1CCS(=O)(=O)C1)C(=O)c1ccccc1)c1ccc(Cl)cc1 (stereo not drawn)", "recorded_measurement": -51.6}
{"compound": "CC1CCCCC1NC(=O)CSc1nc2ccccc2c(=O)n1Cc1ccco1 (stereo not drawn)", "recorded_measurement": 13}
{"compound": "CCOC(=O)N1CCN(CC(=O)Nc2ccc(C)c(Br)c2)CC1.Cl", "recorded_measurement": -16.1}
{"compound": "CCOC(=O)N1CCN(CCC(=O)Nc2ccc(F)c(F)c2)CC1", "recorded_measurement": 0.204}
{"compound": "CCOC(=O)C1=C(c2ccccc2)O/C(=C(/C(=O)OC)C(F)(F)F)S1", "recorded_measurement": -3.45}
{"compound": "COc1cc2nc(SCC(=O)NCc3ccco3)n(Cc3ccc(Cl)cc3)c(=O)c2cc1OC", "recorded_measurement": -3.17}
{"compound": "CC1CCCC(C)N1C(=O)C1CC(c2ccc(F)cc2)=NO1 (stereo not drawn)", "recorded_measurement": -7.79}
{"compound": "CCCCNC(=O)c1ccc(CS(=O)(=O)c2ccc(C)cc2)o1", "recorded_measurement": 15.1}
{"compound": "c1cc(-c2nnn(CCOCCn3nnc(-c4ccncc4)n3)n2)ccn1", "recorded_measurement": -0.329}
{"compound": "O=C(CSc1nc2ccccc2c(=O)n1Cc1ccco1)c1ccc(F)cc1", "recorded_measurement": 9.22}
{"compound": "O=C(CN1CCN(c2ccccc2)CC1)Nc1ccc(Oc2ccccc2)cc1", "recorded_measurement": 15.6}
{"compound": "Cc1nc2ccccc2n1CCc1nc2c3ccccc3nc(SCC(=O)NCc3ccco3)n2n1", "recorded_measurement": -60}
{"compound": "O=C(CSc1nc2ccccc2n1CC(=O)NCc1ccccc1)NCc1ccco1", "recorded_measurement": -20.2}
{"compound": "O=C(CN1CCN(C/C=C/c2ccccc2)CC1)NCc1ccccc1", "recorded_measurement": -73.3}
{"compound": "O=C(N/C=C\\c1ccccc1)NCc1ccc(Cl)cc1", "recorded_measurement": 1.95}
{"compound": "Cl.O=C(CN1CCCC1)NCc1ccccc1", "recorded_measurement": 15.6}
{"compound": "O=C(CNCc1ccccc1)Nc1ccc(Oc2ccccc2)cc1", "recorded_measurement": -18.7}
{"compound": "O=C(NC1CCS(=O)(=O)C1)/C(=C\\c1ccc(F)cc1)NC(=O)c1ccccc1 (stereo not drawn)", "recorded_measurement": -34.7}
{"compound": "CCCCOc1ccc(NC(=O)CN2CCN(C(=O)OCC)CC2)cc1.Cl", "recorded_measurement": -28.6}
{"compound": "CC(C)CCNC(=O)C(c1ccco1)N(Cc1ccc(F)cc1)C(=O)c1snc(C(N)=O)c1N (stereo not drawn)", "recorded_measurement": -22.4}
{"compound": "CCN(CC)CC(=O)Nc1ccc(Oc2ccc(NC(=O)CN(CC)CC)cc2)cc1", "recorded_measurement": 17.1}
{"compound": "O=C(CN1CCN(C/C=C/c2ccccc2)CC1)NCc1ccc(Cl)cc1", "recorded_measurement": -78}
{"compound": "O=C(C1CC1)N1CCN(C(c2ccccc2)c2ccccc2)CC1", "recorded_measurement": 6.33}
{"compound": "Cc1c(NC(=O)C2CCN(S(=O)(=O)c3ccccc3)CC2)c(=O)n(-c2ccccc2)n1C", "recorded_measurement": 4.47}
{"compound": "Cn1c(CN2CCOCC2)nnc1SCC(=O)NC1CCCCC1", "recorded_measurement": 17.7}
{"compound": "CN(C)C(CNC(=O)CSc1nc2ccccc2c(=O)n1Cc1ccco1)c1ccccc1 (stereo not drawn)", "recorded_measurement": -67.1}
{"compound": "O=C(NC(NC1CCS(=O)(=O)C1)C(=O)c1cccs1)c1ccccc1 (stereo not drawn)", "recorded_measurement": -1.01}
